- System: UO-31 renal
- assay.explanation: NCI tumour cell line growth inhibition, 48 h
measured.endpoint: GI50

INSERT INTO measurements (mol, endpoint_value) VALUES
  ('N#Cc1ncc(-c2ccc(C(F)(F)F)cc2)c(NCc2cc(C(F)(F)F)cc(C(F)(F)F)c2)n1', '2.89 µM'),
  ('Clc1cc2c(cc1Cl)Oc1cc(Cl)c(Cl)cc1O2', '0.209 µM'),
  ('CCCc1cc(O)c2c3c(c(=O)oc2c1)CN(C)CC3', '35.8 µM'),
  ('Cc1cc2cc3cc(C)c(N(C)C)cc3[n+](C)c2cc1N(C)C', '5.05 µM'),
  ('O=S(=O)(Cc1ccc(Cl)cc1Cl)c1ccc(Cl)cc1', '1.03 µM'),
  ('CCC[CH2][Sn]([CH2]CCC)([O]C(=O)c1cc(F)ccc1F)[O][Sn]([CH2]CCC)([CH2]CCC)[O]C(=O)c1cc(F)ccc1F', '0.54 µM'),
  ('N#Cc1cccc(OCc2nc(N)nc(N)c2-c2ccc(Cl)c(Cl)c2)c1', '3.23 µM'),
  ('COc1ccc(-n2cc(-c3cc(OC)c(OC)c(OC)c3)nc2SCc2ccccc2)cc1', '28 µM'),
  ('Clc1ccc(/C=C/c2cc(N3CCOCC3)c3cc(Cl)c(Cl)cc3n2)cc1', '0.71 µM'),
  ('C/C=C/C/C=C/CCC(=O)[C@H]1O[C@H]1C(N)=O', '9.21 µM');
